Sourced from the supplement of paper PMC10567573

B1: CHCHD6 (parent)
chain: MYKLSSEQFHEAASKMESTIKPRR

- Variants of: B1
- run-description: protein stability index of a GFP-peptide fusion (GPS, HEK-293T) (PSI 1-6); higher = more stable;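 also: lentivirally expressed fusions sorted by FACS into six bins by GFP to DsRed ratio, PSI derived from sequencing read proportions per bin multiplied by bin number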
- applied-conditions: c terminus: a fixed tail appended
Listed next: entries and their corresponding protein stability index.

Example entries and their recorded answers appear below.
1) E7M
2.97
2) I20L
3.23
3) M16R
3.94
4) E11A
2.99

Query: Specify protein stability index for `F9C` and stop.
Reply: 3.83

Query: Specify protein stability index for `S6Q` and stop.
Reply: 4.25

Query: Specify protein stability index for `H10I` and stop.
Reply: 3.08

Query: Specify protein stability index for `S5I` and stop.
Reply: 2.65

Query: Specify protein stability index for `S5Q` and stop.
Reply: 3.78

Query: Specify protein stability index for `S14T` and stop.
Reply: 3.81

Query: Specify protein stability index for `E7D` and stop.
Reply: 3.7

Query: Specify protein stability index for `R24N` and stop.
Reply: 4.18
